test system: pigweed; experiment: Test A pre-/postemergence herbicide test; type: in vivo, Amaranthus retroflexus; details: Preemergence, 125 g ai/ha; 0 to 100 scale where 0 is no effect and 100 is complete control
observation type: Plant response rating, Pigweed
Number only, no unit.

O=C1NCC(c2cccc(C(F)(F)F)c2)C1C(=O)Nc1cccc(C(F)(F)F)c1 (centres unmarked)
0

Please examine the following record next.
*Q* Please look at this molecule and report its Plant response rating, Pigweed: O=C1NCC(c2cc3ccccc3o2)C1C(=O)Nc1cccc(F)c1F (centres unmarked)
*A* 0

###

List of Plant response rating, Crabgrass, Large values.
test system: crabgrass, large; assay: Test C pre-/postemergence herbicide test; format: in vivo, Digitaria sanguinalis; settings: Preemergence, 250 g ai/ha; scale 0 to 100 (0 no effect, 100 complete control)
Description: […]
Answer with a bare number; do not write a unit.

Worked set:
O=C1NCC(c2cc(F)c(F)c(F)c2)C1C(=O)Nc1ccccc1F (racemic)
100
O=C1NCC(c2cc(F)c(F)c(F)c2)C1C(=O)Nc1ccccc1C(F)(F)F (racemic)
100
O=C1NCC(c2ccc(Cl)c(F)c2)C1C(=O)Nc1ccccc1F (stereo not shown)
90

Attention now shifts to the item below.
*Q* # return recorded Plant response rating, Crabgrass, Large for input O=C1NCC(c2ccc(F)cc2)C1C(=O)Nc1ccccc1F (racemic)
*A* 100
